Data origin, for the record: PubChem BioAssay (NCI)

test system: MDA-MB-435 melanoma; assay: NCI-60 one-dose screen, 48 h (100 = growth as untreated, 0 = no growth, -100 = all killed); settings: 10 µM unless noted
Compounds without any hit were thinned out: in the full panel of roughly 83,000, 20% have a hit. Activity calls are given as the source filed them. The calls were made as follows: active = growth percent below 10; inactive = the rest.
In this section we review reported growth values for a set of compounds.

compound	growth
O=C(Nc1ccc(Cl)cc1)Nc1ccc(Cl)c(Cl)c1	7.4% (active)
Cc1[nH]n(-c2cccc(Cl)c2)c(=O)c1/C=C1\C=Nc2ccc(Br)cc21	43.9% (inactive)
C=C1C(=O)O[C@H]2[C@H]1CC/C(COC(=O)/C=C/c1c[nH]c3ccccc13)=C\CC[C@@]1(C)O[C@@H]21	-88.5% (active)
Cc1cc2nc(-c3ccccc3)c(-c3ccccc3)nc2cc1C	93% (inactive)
CN1CCN(CCCOc2ccc3ncnc(Nc4ccc(Oc5cccc(C(F)(F)F)c5)c(Cl)c4)c3c2)CC1	-82% (active)
C=C(C)[C@@H]1CC[C@]2(CO)CC[C@]3(C)[C@H](CC[C@@H]4[C@@]5(C)CCCNC(C)(C)[C@@H]5CC[C@]43C)[C@@H]12	13.5% (inactive)
CCc1nc(C)cn1C(=O)OCc1nc2nc(Cl)nc(N3CCOCC3)c2[nH]1	-73.6% (active)
CCC(C)N(CCNc1cc(OC)cc2cccnc12)CCC(C)C (centres undefined)	107% (inactive)
CSc1nnc2c(=O)n(C)c(=O)n(C)c2n1	95.2% (inactive)
